// data source = patent US9682928B2

# target-or-system: Na+K+Cl− co-transporter (Rattus norvegicus, UniProt E9PTX9)
# Construct: endogenous in cells; host or cells: A7r5 cells
# Sequence (E9PTX9 1-1203): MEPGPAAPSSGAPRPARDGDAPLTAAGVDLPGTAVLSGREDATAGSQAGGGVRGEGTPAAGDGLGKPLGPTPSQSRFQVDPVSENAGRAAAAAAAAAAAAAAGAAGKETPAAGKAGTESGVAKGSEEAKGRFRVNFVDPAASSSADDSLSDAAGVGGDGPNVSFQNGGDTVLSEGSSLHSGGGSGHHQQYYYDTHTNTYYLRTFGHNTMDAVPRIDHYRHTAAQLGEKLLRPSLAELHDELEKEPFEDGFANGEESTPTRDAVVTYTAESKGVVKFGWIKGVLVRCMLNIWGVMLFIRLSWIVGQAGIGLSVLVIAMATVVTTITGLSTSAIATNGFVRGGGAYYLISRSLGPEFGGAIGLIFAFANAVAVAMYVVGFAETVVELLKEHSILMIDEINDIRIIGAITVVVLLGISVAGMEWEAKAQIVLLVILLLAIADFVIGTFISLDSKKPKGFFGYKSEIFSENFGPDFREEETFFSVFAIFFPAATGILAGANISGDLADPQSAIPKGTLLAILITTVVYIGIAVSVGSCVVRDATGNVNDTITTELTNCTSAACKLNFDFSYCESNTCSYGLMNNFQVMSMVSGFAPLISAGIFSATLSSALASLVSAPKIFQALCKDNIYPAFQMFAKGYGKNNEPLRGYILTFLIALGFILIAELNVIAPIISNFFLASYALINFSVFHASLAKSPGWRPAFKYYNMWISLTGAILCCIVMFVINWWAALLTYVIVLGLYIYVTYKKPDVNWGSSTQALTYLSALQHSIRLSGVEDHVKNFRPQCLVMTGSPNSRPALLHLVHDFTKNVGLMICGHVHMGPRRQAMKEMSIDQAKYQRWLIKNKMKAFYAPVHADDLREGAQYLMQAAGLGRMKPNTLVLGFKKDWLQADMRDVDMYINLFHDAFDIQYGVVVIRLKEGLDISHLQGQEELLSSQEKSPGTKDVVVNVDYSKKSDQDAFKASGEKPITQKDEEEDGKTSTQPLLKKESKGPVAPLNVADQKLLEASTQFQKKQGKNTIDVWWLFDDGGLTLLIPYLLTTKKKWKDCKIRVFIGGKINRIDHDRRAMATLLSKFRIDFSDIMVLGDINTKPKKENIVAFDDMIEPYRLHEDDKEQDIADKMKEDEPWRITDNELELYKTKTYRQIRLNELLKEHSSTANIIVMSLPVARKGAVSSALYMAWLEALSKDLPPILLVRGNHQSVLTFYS
# protocol: Na+K+Cl− cotransporter assay, 86Rb uptake in A7r5 cells
# Format: cell-based
# conditions: 10 minutes at 37° C., read-out: % Inhibition of Control Values
List of inhibition at 10 µM values.
Reply numerically in %, unit not repeated.

Below are worked cases with known answers.
>>> quantitative_readout("CCCCNc1cc(C(=O)OCC(=O)N(C)C)cc(S(N)(=O)=O)c1Oc1ccccc1")
13
>>> quantitative_readout("CCCCNc1cc(C(=O)O)cc(S(N)(=O)=O)c1Oc1ccccc1 [Bumetanide, reference compound]")
76
>>> quantitative_readout("CCCCNc1cc(C(=O)NCCCN(C)C)cc(S(N)(=O)=O)c1Oc1ccccc1")
-27

Kindly consider the entry below.
Req: Name the reported inhibition at 10 µM value associated with the compound CCCCNc1cc(C(=O)OCOC(=O)C(C)(C)C)cc(S(N)(=O)=O)c1Oc1ccccc1
Resp: 35
